assayed system: CAT1 (cationic amino acid transporter 1, CAT1/SLC7A1) (Homo sapiens, UniProt P30825)
Construct: full-length human transporter stably transfected in HEK cells (HEK-CAT1); net uptake against HEK-VC vector control cells
Sequence (P30825 whole entry): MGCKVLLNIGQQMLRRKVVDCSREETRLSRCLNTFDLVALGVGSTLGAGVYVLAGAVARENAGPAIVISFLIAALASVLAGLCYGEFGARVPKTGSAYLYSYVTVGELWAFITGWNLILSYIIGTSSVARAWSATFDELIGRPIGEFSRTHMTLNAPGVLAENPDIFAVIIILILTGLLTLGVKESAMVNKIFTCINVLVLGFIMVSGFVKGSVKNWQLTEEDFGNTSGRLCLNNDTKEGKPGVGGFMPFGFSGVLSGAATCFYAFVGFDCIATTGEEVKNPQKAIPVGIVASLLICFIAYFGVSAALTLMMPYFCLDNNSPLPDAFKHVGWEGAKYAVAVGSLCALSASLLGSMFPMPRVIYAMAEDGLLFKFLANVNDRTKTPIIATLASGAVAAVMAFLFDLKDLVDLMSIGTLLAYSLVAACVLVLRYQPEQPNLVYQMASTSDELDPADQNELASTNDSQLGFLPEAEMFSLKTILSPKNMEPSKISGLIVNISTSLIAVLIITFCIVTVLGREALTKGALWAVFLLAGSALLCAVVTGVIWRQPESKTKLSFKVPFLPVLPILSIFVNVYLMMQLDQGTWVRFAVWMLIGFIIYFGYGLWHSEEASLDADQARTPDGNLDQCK
protocol details: cell-based
Design: species or system HEK-CAT1 (HEK293 stably transfected); Inhibition of net CAT1-mediated [3H]-ADMA (1 uM) uptake, 2.5 min, scintillation counting, vector control subtracted
study conditions: HEK293; ADMA 1 uM as substrate; read-out: % Inhibition of ADMA uptake at 20 µM
Description: Uptake and inhibition assays using HEK-CAT1 and HEK-VC cells and L-arginine, L-homoarginine, and ADMA as substrates were performed using the protocol described (Strobel et al. [2012]; Chafai et al. [2017]). […] The net uptake was determined by subtracting the total amount taken up by control cells from the amount taken up by CAT1-expressing cells, which was expressed as a percentage of the amount taken up by the control. […]
measured attribute: inhibition at 20 µM (%)

compound="C[C@H](CS)C(=O)N1CCC[C@H]1C(=O)O [Captopril]" recorded_number=0.5
compound="Nc1nc(NC2CC2)c2ncn([C@H]3C=C[C@@H](CO)C3)c2n1 [Abacavir]" recorded_number=-4.3
compound="Cc1ncc([N+](=O)[O-])n1CCO [Metronidazole]" recorded_number=-3.1
compound="CCOC(=O)C1=C(C)NC(C)=C(C(=O)OC)C1c1cccc([N+](=O)[O-])c1 (stereo not drawn) [Nitrendipine]" recorded_number=3.2
compound="C[C@H]1c2cccc(O)c2C(=O)C2=C(O)[C@]3(O)C(=O)C(C(N)=O)=C(O)[C@@H](N(C)C)[C@@H]3[C@@H](O)[C@@H]21 [Doxycycline]" recorded_number=3.1
compound="OCCN1CCN(CCCN2c3ccccc3C=Cc3ccccc32)CC1 [Opipramol]" recorded_number=-13.4
compound="CN1CCOC(c2ccccc2)c2ccccc2C1 (stereo not drawn) [Nefopam]" recorded_number=-3.2
compound="CN/C(=N\\CCSCc1nc[nH]c1C)NC#N [Cimetidine]" recorded_number=21.9
compound="CCc1nc(N)nc(N)c1-c1ccc(Cl)cc1 [Pyrimethamine]" recorded_number=-37.1

* * *

assayed system: CAT1 (cationic amino acid transporter 1, CAT1/SLC7A1) (Homo sapiens, UniProt P30825)
Construct: full-length human transporter stably transfected in HEK cells (HEK-CAT1); net uptake against HEK-VC vector control cells
protocol details: cell-based
Design: species or system HEK-CAT1 (HEK293 stably transfected); Inhibition of net CAT1-mediated [3H]-ADMA (1 uM) uptake, 2.5 min, scintillation counting, vector control subtracted
study conditions: HEK293; ADMA 1 uM as substrate; read-out: % Inhibition of ADMA uptake at 200 µM
Description: Uptake and inhibition assays using HEK-CAT1 and HEK-VC cells and L-arginine, L-homoarginine, and ADMA as substrates were performed using the protocol described (Strobel et al. [2012]; Chafai et al. [2017]). […] The net uptake was determined by subtracting the total amount taken up by control cells from the amount taken up by CAT1-expressing cells, which was expressed as a percentage of the amount taken up by the control. […]
measured attribute: inhibition at 200 µM (%)

compound="Oc1ncnc2[nH]ncc12 [Allopurinol]" recorded_number=2
compound="CN/C(=N\\CCSCc1nc[nH]c1C)NC#N [Cimetidine]" recorded_number=1.1
compound="Clc1ccccc1CN1CCc2sccc2C1 [Ticlopidine]" recorded_number=-33.5
compound="CC(=O)Nc1nnc(S(N)(=O)=O)s1 [Acetazolamide]" recorded_number=9.7
compound="COc1ccnc(C[S+]([O-])c2nc3cc(OC(F)F)ccc3[nH]2)c1OC (stereo not shown) [Pantoprazole]" recorded_number=-9.9
compound="CCCN(CCC)S(=O)(=O)c1ccc(C(=O)O)cc1 [Probenecid]" recorded_number=-17.5
compound="CC(=O)S[C@@H]1CC2=CC(=O)CC[C@]2(C)[C@H]2CC[C@@]3(C)[C@@H](CC[C@@]34CCC(=O)O4)[C@H]12 [Spironolactone]" recorded_number=-7.6
compound="CC(C)Cc1ccc(C(C)C(=O)O)cc1 (stereo not shown) [Ibuprofen]" recorded_number=-44.8
compound="Cc1cc(=O)n(-c2ccccc2)n1C [Antipyrine]" recorded_number=-1.2
compound="Cc1nccn1CC1CCc2c(c3ccccc3n2C)C1=O (stereo not shown) [Ondansetron]" recorded_number=10.1
compound="O=C(O[C@H]1C[C@H]2CC[C@@H](C1)[N+]21CCCC1)C(O)(c1ccccc1)c1ccccc1 [Trospium Chloride]" recorded_number=3
compound="CC[C@H]1OC(=O)[C@H](C)[C@@H](O[C@H]2C[C@@](C)(OC)[C@@H](O)[C@H](C)O2)[C@H](C)[C@@H](O[C@@H]2O[C@H](C)C[C@H](N(C)C)[C@H]2O)[C@](C)(OC)C[C@@H](C)C(=O)[C@H](C)[C@@H](O)[C@]1(C)O [Clarithromycin]" recorded_number=-72.9
compound="CC1(C)S[C@@H]2[C@H](NC(=O)[C@H](N)c3ccc(O)cc3)C(=O)N2[C@H]1C(=O)O [Amoxicillin]" recorded_number=10.2
compound="C[C@H]1c2cccc(O)c2C(=O)C2=C(O)[C@]3(O)C(=O)C(C(N)=O)=C(O)[C@@H](N(C)C)[C@@H]3[C@@H](O)[C@@H]21 [Doxycycline]" recorded_number=9.9
compound="COc1ccccc1OCCNCC(O)COc1cccc2[nH]c3ccccc3c12 (stereo not shown) [Carvedilol]" recorded_number=-7.8
compound="CCN(CC)CCNC(=O)c1cc(Cl)c(N)cc1OC [Metoclopramide]" recorded_number=4.2
compound="CCCCNc1cc(C(=O)O)cc(S(N)(=O)=O)c1Oc1ccccc1 [Bumetanide]" recorded_number=-9.7
compound="CN(C)CCCN1c2ccccc2CCc2ccc(Cl)cc21 [Clomipramine]" recorded_number=14
compound="C[C@@H]1CCC[C@H](C)N1NC(=O)c1ccc(Cl)c(S(N)(=O)=O)c1 [Clopamide]" recorded_number=11.6
compound="C[C@]12CCC(=O)C=C1CC[C@H]1[C@@H]3CC[C@](O)(C(=O)CO)[C@@]3(C)C[C@H](O)[C@@]12F [Fludrocortisone]" recorded_number=-43.9
compound="C[C@H](CS)C(=O)N1CCC[C@H]1C(=O)O [Captopril]" recorded_number=-19.6
compound="CCCc1nc(C(C)(C)O)c(C(=O)O)n1Cc1ccc(-c2ccccc2-c2nnn[nH]2)cc1 [Olmesartan]" recorded_number=-7.7

All figures here come from paper PMC9217908.
